Test system: yellow nutsedge
Experiment: Test C pre-/postemergence herbicide test
Format: in vivo, Cyperus esculentus
Conditions: 62 g ai/ha; preemergence; scale 0 to 100
This listing pairs molecules with measured Plant response rating, Nutsedge, Yellow.

| molecule | testedOn | Plant response rating, Nutsedge, Yellow |
| --- | --- | --- |
| CCc1nn(C(C)(C)C)nc1C(=S)Nc1cccc(C(=S)N(C)C)c1 | yellow nutsedge | 0 |
| CCn1nc(C(C)(C)C)cc1C(=O)Nc1cc(C(=S)N(C)C)ccc1F | yellow nutsedge | 50 |
| CCNC(=O)c1cccc(NC(=O)c2sc(C(C)(C)C)nc2C)c1 | yellow nutsedge | 0 |
| CCOC(=O)c1cccc(NC(=O)c2nn(C(C)(C)CC)nc2CC)c1 | yellow nutsedge | 0 |
| CCC1=NN(C(C)(C)C)CC1C(=O)Nc1cc(C(=O)N(C)C)ccc1F (racemic) | yellow nutsedge | 5 |
| CCn1nc(C(C)(C)C)cc1C(=O)Nc1cccc(C(N)=O)n1 | yellow nutsedge | 0 |
| CCN(C)C(=O)c1ccc(F)c(NC(=O)C2CC(C(C)(C)C)=NN2CC)c1 (racemic) | yellow nutsedge | 5 |

----------
Test system: lambsquarters
Assay: Test B pre-/postemergence herbicide test
Type: in vivo, Chenopodium album
Conditions: Postemergence, 500 g ai/ha; scale 0 (no effect) to 100 (complete control)
Tag: y if measured Lambsquarters plant response rating is not below 70, n if it is.

| compoundStructure | groupLabel |
| --- | --- |
| C=CCNC(=O)c1ccc(F)c(N(C(C)=O)C(=O)c2cc(C(C)(C)C)nn2CC)c1 | y |
| CCOC(=O)c1cccc(NC(=O)c2nn(C(C)(C)CC)nc2CC)c1 | n |
| CCNC(=O)c1cncc(NC(=O)c2nn(C(C)(C)C)nc2C)c1 | n |
| CCc1nn(C(C)(C)CC)nc1C(=O)Nc1cc(C(=O)N(C)C)ccc1F | n |
| CCc1nn(C(C)(C)C)nc1C(=O)Nc1cccc(C(=S)N(C)C)c1 | y |
| CCN(CC)C(=O)c1cccc(NC(=O)c2nn(C(C)(C)C)nc2C)n1 | n |

----------
Some compounds, each annotated with its measured Bermudagrass plant response rating.
Test system: bermudagrass
Assay: Test C pre-/postemergence herbicide test
Assay type: in vivo, Cynodon dactylon
Conditions: Preemergence, 500 g ai/ha; scale 0 to 100, 0 no effect, 100 complete control

| compound | testedOn | Bermudagrass plant response rating |
| --- | --- | --- |
| CC(=NO)c1cccc(NC(=O)c2cc(C(C)(C)C)nn2CCF)c1 [Compound 115] | bermudagrass | 100 |
| CC(=NO)c1cccc(NC(=O)c2sc(C(C)(C)C)nc2C)c1 [Compound 195] | bermudagrass | 65 |
| CCOC(=O)c1cccc(NC(=O)c2cc(C(C)(C)C)nn2CC)c1C [Compound 88] | bermudagrass | 95 |
| CCNC(=O)c1cccc(NC(=O)c2cc(C3(C)CC3)nn2CC)c1 [Compound 306] | bermudagrass | 100 |
| CCNC(=O)c1cc(NC(=O)c2cc(C(C)(C)C)nn2CC)ccc1F [Compound 58] | bermudagrass | 100 |
| C=CCNC(=O)c1cccc(NC(=O)c2sc(C(C)(C)C)nc2CC)c1 [Compound 207] | bermudagrass | 100 |
| C#CCNC(=O)c1cccc(NC(=O)c2cc(C(C)(C)C)nn2CC)c1 [Compound 47] | bermudagrass | 100 |
